The measurements presented in this section are drawn from PubChem BioAssay (NCI).

tested on: ACHN renal; assay: NCI tumour cell line growth inhibition, 48 h; in the data active = GI50 below about 0.43 µM; inactive = the rest
Outcome codes: active, inactive

| Entry smiles | Classification |
| --- | --- |
| Oc1ccc2ccccc2c1/C=N\Nc1ccccn1 | active |
| CSC(=S)N/N=C(\C)c1ccccn1 | active |
| COc1cc(/C=C/C(=O)c2ccc(Nc3nc(Nc4ccc(F)cc4)nc(Nc4ccc(F)cc4)n3)cc2)cc(OC)c1OC | inactive |
| CC1=C(C)C(=O)C(C(C)C2=C(C)C(=O)C(C)=C(C)C2=O)=C(C)C1=O | inactive |
| Cc1c2c(nn1-c1ccc(S/N=C3\SCC(=O)CN3c3ccccc3)cc1)-c1ccccc1CC2 | inactive |
| COC(=O)c1c(-c2ccccc2)csc1NC(=O)c1c(-c2ccccc2)noc1C | inactive |
